- Tested on: HCT-116
- ASSAY NAME: Antiproliferative activity against human HCT116 cells
- Format: functional, cell-based
Response field label: string, one of criterion met (IC50 strictly below 40 nM) or criterion not met.

Lookup: Identify whether the compound Cc1c(-c2cc3cnc(Nc4cc(C(=O)N5CCN(C)CC5)n(C)c4)nc3n2C2CCCC2)cnn1C records IC50 below 40 nM.
Found: criterion not met

* * *

- Test system: HCT-116
- ASSAY NAME: Antiproliferative activity against human HCT116 cells
- Format: functional, cell-based
READOUT TYPE: pIC50
One number for each entry, as −log10 of the molar value.

[[record]]
entry_smiles = "CC(C)CCn1cc(-c2cc3cnc(Nc4cc(C(=O)N5CCN(C)CC5)n(C)c4)nc3n2C2CCCC2)cn1"
readout_number = 6.96

[[record]]
entry_smiles = "CN1CCN(C(=O)c2cc(Nc3ncc4cc(-c5cnco5)n(C5CCCC5)c4n3)cn2C)CC1"
readout_number = 7.22

[[record]]
entry_smiles = "CN1CCN(C(=O)c2cc(Nc3ncc4cc(/C=N/O)n(C5CCCC5)c4n3)cn2C)CC1"
readout_number = 8.40

[[record]]
entry_smiles = "CN1CCN(C(=O)c2cc(Nc3ncc4cc(C(N)=O)n(C5CCCC5)c4n3)cn2C)CC1"
readout_number = 7.15


// next item, pIC50 requested
Entry CN1CCN(C(=O)c2cc(Nc3ncc4cc(-c5cnn(Cc6ccccc6)c5)n(C5CCCC5)c4n3)cn2C)CC1 , pIC50 reported as 7.05
